Each recorded value in this set is attributed to patent US7273866B2.

tested on: KCNQ channels; assay: Thallium flux assay for KCNQ channel openers; format: cell-based; settings: thallium flux, 10 point concentration series; HEK-293 cells stably transfected with a KCNQ family member
observation-type: EC50

compound | observation-type | value-reported
CC(NC(=O)c1sc(-c2ccccc2F)nc1C(F)(F)F)c1cccc(OC(F)(F)F)c1 (stereo not drawn) | EC50 | < 0.05 µM
CCN(Cc1ccncc1)Cc1ccccc1-c1nc(C(F)(F)F)c(C(=O)N[C@@H](C)c2cccc(OC)c2)s1 | EC50 | 0.05 to 1 µM
CC(NC(=O)c1sc(-c2ccccc2N2CCOCC2)nc1C(F)(F)F)c1cccc(OC(F)(F)F)c1 (stereo not drawn) | EC50 | 0.05 to 1 µM
CCN(CC)Cc1ccccc1-c1nc(C(F)(F)F)c(C(=O)NCc2cccc(F)c2)s1 | EC50 | 0.05 to 1 µM
CCN(Cc1cccnc1-c1nc(C(F)(F)F)c(C(=O)NC(C)c2cccc(OC(F)(F)F)c2)s1)C(C)C (stereo not drawn) | EC50 | 0.05 to 1 µM
CC(NC(=O)c1sc(-c2ccccc2F)nc1C(F)(F)F)c1cccc(CN2CCOCC2)c1 (stereo not drawn) | EC50 | 1 to 20 µM
CC(NC(=O)c1sc(-c2ccccc2Cl)nc1C(F)(F)F)c1cccc(C(F)(F)F)c1 (stereo not drawn) | EC50 | 0.05 to 1 µM
CC(NC(=O)c1sc(-c2ccc3c(c2)OCO3)nc1C(F)(F)F)c1cccc(OC(F)(F)F)c1 (stereo not drawn) | EC50 | 1 to 20 µM
Cc1cccnc1-c1nc(C(F)(F)F)c(C(=O)N[C@@H](C)c2cccc(-c3cccnc3)c2)s1 | EC50 | 0.05 to 1 µM
CCN(CC)CCOc1ccccc1-c1nc(C(F)(F)F)c(C(=O)NCc2cccc(F)c2)s1 | EC50 | 1 to 20 µM
COc1ccc(F)cc1-c1nc(C(F)(F)F)c(C(=O)NCc2cccc(F)c2)s1 | EC50 | 0.05 to 1 µM
COc1ccccc1-c1nc(C(F)(F)F)c(C(=O)NC(C)c2cccc(OC(F)(F)F)c2)s1 (stereo not drawn) | EC50 | < 0.05 µM
COc1cccc(-c2nc(C(F)(F)F)c(C(=O)N[C@@H](C)c3cccc(OC(F)(F)F)c3)s2)c1 (stereo in doubt) | EC50 | 0.05 to 1 µM
COc1cccc([C@H](C)NC(=O)c2sc(-c3ccccc3CN(C)C)nc2C(F)(F)F)c1 | EC50 | 0.05 to 1 µM
CCN(Cc1ccncc1)Cc1cccnc1-c1nc(C(F)(F)F)c(C(=O)NC(C)c2cccc(CN3CCOCC3)c2)s1 (stereo not drawn) | EC50 | 0.05 to 1 µM
COc1ccccc1-c1nc(C(F)(F)F)c(C(=O)NC(C)c2cccc(N3CCCCC3)c2)s1 (stereo not drawn) | EC50 | < 0.05 µM
COc1cccc(C(C)NC(=O)c2sc(-c3ccccc3N3CCOCC3)nc2C(F)(F)F)c1 (stereo not drawn) | EC50 | 1 to 20 µM
COc1ccc(F)cc1-c1nc(C(F)(F)F)c(C(=O)N[C@@H](C)c2cccc(N3CCOCC3)c2)s1 | EC50 | 1 to 20 µM
COc1ccccc1-c1nc(C(F)(F)F)c(C(=O)NC(C)c2cccc(N3CCCC3)c2)s1 (stereo not drawn) | EC50 | 0.05 to 1 µM
CC(NC(=O)c1sc(-c2ccccc2F)nc1C(F)(F)F)c1cccc(C(F)(F)F)c1 (stereo not drawn) | EC50 | < 0.05 µM
CCN(Cc1ccncc1)Cc1cccnc1-c1nc(C(F)(F)F)c(C(=O)N[C@@H](C)c2cccc(-c3cccnc3)c2)s1 | EC50 | 0.05 to 1 µM
COc1ccc(F)cc1-c1nc(C(F)(F)F)c(C(=O)NC(C)c2cccc(N(C)C)c2)s1 (stereo not drawn) | EC50 | 0.05 to 1 µM
COc1ccccc1-c1nc(C(F)(F)F)c(C(=O)NC(C)c2cccc(C(F)(F)F)c2)s1 (stereo not drawn) | EC50 | < 0.05 µM
CC(NC(=O)c1sc(-c2ccccc2F)nc1C(F)(F)F)c1cccc(N(C)Cc2ccco2)c1 (stereo not drawn) | EC50 | 0.05 to 1 µM
COc1ccccc1-c1nc(C(F)(F)F)c(C(=O)NC(C)c2cccc(N)c2)s1 (stereo not drawn) | EC50 | 1 to 20 µM
COc1ccccc1-c1nc(C(F)(F)F)c(C(=O)NCc2cccc(F)c2)s1 | EC50 | 1 to 20 µM
COc1ccc(F)cc1-c1nc(C(F)(F)F)c(C(=O)NCc2cccc(OC(F)(F)F)c2)s1 | EC50 | 1 to 20 µM
COc1ccccc1-c1nc(C(F)(F)F)c(C(=O)N[C@@H](C)c2cccc(N3CCOCC3)c2)s1 | EC50 | 0.05 to 1 µM
CC(NC(=O)c1sc(-c2ccccc2CN(C)C)nc1C(F)(F)F)c1cccc(OC(F)(F)F)c1 (stereo not drawn) | EC50 | 1 to 20 µM
CC(NC(=O)c1sc(-c2ccc(F)cc2)nc1C(F)(F)F)c1cccc(OC(F)(F)F)c1 (stereo not drawn) | EC50 | < 0.05 µM
